Task for the reader: assign each of the following compounds its reported IC50.
# Tested Target: glycine transporter-1 (GlyT-1) (Homo sapiens, UniProt P48067)
# Construct: JAR cells (ATCC#HTB-144), which endogenously express GlyT-1; host or cells: JAR human choriocarcinoma cells
# Sequence (P48067 whole entry): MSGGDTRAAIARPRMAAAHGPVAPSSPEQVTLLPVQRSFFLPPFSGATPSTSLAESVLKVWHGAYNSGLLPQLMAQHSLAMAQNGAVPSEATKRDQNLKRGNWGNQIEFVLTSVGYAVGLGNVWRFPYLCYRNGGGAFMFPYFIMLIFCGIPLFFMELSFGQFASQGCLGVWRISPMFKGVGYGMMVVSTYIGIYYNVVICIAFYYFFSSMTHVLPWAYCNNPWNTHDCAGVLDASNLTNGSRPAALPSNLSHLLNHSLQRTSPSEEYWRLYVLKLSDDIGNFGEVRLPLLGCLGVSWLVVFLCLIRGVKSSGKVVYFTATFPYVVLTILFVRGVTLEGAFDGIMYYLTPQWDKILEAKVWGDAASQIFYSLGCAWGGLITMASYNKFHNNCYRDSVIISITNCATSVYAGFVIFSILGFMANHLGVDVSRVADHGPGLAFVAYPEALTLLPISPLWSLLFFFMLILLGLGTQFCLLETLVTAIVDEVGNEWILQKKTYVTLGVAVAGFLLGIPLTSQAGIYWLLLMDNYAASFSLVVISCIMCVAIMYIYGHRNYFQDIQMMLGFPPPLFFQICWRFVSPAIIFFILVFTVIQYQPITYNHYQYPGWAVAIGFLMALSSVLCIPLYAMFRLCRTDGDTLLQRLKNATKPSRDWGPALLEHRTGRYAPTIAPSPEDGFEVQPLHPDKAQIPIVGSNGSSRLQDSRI
# Test Method Notes: [14C]glycine uptake assay in JAR cells endogenously expressing GlyT-1 (scintillation proximity)
# Format: cell-based
# Condition Parameters: JAR cells, [14C]glycine 5 μM, 3 hour incubation; read-out: GlyT-1 IC50
Structures can show the parent of a compound that is named as a salt.
The reply should contain only the number, in nM.

Bench note: what IC50 did CCCS(=O)(=O)N1CCN(C2(CNC(=O)c3c(C)cccc3C)CCCCC2)CC1 [compound 47, Hydrochloride] show?
12

Bench note: what IC50 did Cn1cc(S(=O)(=O)N2CCN(C3(CNC(=O)c4ccc(F)cc4F)CCCC3)CC2)nn1 [compound 111, Hydrochloride] show?
242

Bench note: what IC50 did CCCS(=O)(=O)N1CCN(C2(CNC(=O)c3ccc(Cl)cc3F)CCC(F)(F)CC2)CC1 [compound 143, Hydrochloride] show?
137

Bench note: what IC50 did CCCS(=O)(=O)N1CCN(C2(CNC(=O)c3ccc(OC(F)(F)F)cc3)CCCCC2)CC1 [compound 6, Hydrochloride] show?
118

Bench note: what IC50 did CC(NC(=O)c1ccc(F)cc1Cl)C1(N2CCN(S(=O)(=O)c3cn(C)nn3)CC2)CCC(F)(F)CC1 (centres unmarked) [compound 219, Hydrochloride] show?
3

Bench note: what IC50 did CCCS(=O)(=O)N1CCN(C2(CNC(=O)c3ccc(F)cc3OC)CCCCC2)CC1 [compound 46, Hydrochloride] show?
357

Bench note: what IC50 did Cn1cnc(S(=O)(=O)N2CCN(C3(CNC(=O)c4c(F)cc(F)cc4F)CCC(F)(F)CC3)CC2)c1 [compound 167, Hydrochloride] show?
11

Bench note: what IC50 did CCCS(=O)(=O)N1CCN(C2(CNC(=O)c3ccc(Cl)cc3OC)CCCCC2)CC1 [compound 45, Hydrochloride] show?
322

Bench note: what IC50 did CCS(=O)(=O)N1CCN(C2(CNC(=O)c3c(F)cc(Cl)cc3F)CCC(F)(F)CC2)CC1 [compound 208, Hydrochloride] show?
137

Bench note: what IC50 did O=C(NCC1(N2CCN(S(=O)(=O)CC3CC3)CC2)CCCCC1)c1c(F)cccc1F [compound 81, Hydrochloride] show?
61

Bench note: what IC50 did CC(NC(=O)c1ccc(C(F)(F)F)cc1Cl)C1(N2CCN(S(=O)(=O)c3cn(C)nn3)CC2)CCC(F)(F)CC1 (centres unmarked) [compound 224, Hydrochloride] show?
1

Bench note: what IC50 did Cn1cnc(S(=O)(=O)N2CCN(C3(CNC(=O)c4c(F)cccc4OC(F)(F)F)CCC(F)(F)CC3)CC2)c1 [compound 186, Hydrochloride] show?
1

Bench note: what IC50 did Cc1cc(F)c(C(=O)NCC2(N3CCN(S(=O)(=O)c4cn(C)nn4)CC3)CCC(F)(F)CC2)cc1F [compound 239, Hydrochloride] show?
20

Bench note: what IC50 did CCCS(=O)(=O)N1CCN(C2(CNC(=O)c3ccc(Cl)cc3OC)CCCCCC2)CC1 [compound 53, Hydrochloride] show?
373

* * *

# Tested Target: glycine transporter-1 (GlyT-1) (Homo sapiens)
# Construct: JAR cells (ATCC#HTB-144), which endogenously express GlyT-1; host or cells: JAR human choriocarcinoma cells
# Test Method Notes: [14C]glycine uptake assay in JAR cells endogenously expressing GlyT-1 (scintillation proximity)
# Format: cell-based
# Condition Parameters: JAR cells, [14C]glycine 5 μM, 3 hour incubation; read-out: GlyT-1 IC50
Where a name gives a salt, the structure may show the parent alone.
Measured Endpoint: IC50 (nM)
The reply should contain only the number, in nM.

Bench note: what IC50 did CCCS(=O)(=O)N1CCN(C2(CNC(=O)c3ccc(C(F)(F)F)cc3F)CCC(F)(F)CC2)CC1 [compound 150, Hydrochloride] show?
61

Bench note: what IC50 did CCCS(=O)(=O)N1CCN(C2(CNC(=O)c3c(F)cccc3F)CCCCCC2)CC1 [compound 66, Hydrochloride] show?
29

Bench note: what IC50 did CC(NC(=O)c1ccc(C(F)(F)F)cc1C(F)(F)F)C1(N2CCN(S(=O)(=O)c3cn(C)nn3)CC2)CCC(F)(F)CC1 (stereo not drawn) [compound 225, Hydrochloride] show?
28

Bench note: what IC50 did CCS(=O)(=O)N1CCN(C2(CNC(=O)c3ccc(C(F)(F)F)cc3C(F)(F)F)CCC(F)(F)CC2)C(C)C1 (racemic) [compound 218, Hydrochloride] show?
86

Bench note: what IC50 did CC1CN(C2(CNC(=O)c3ccc(C(F)(F)F)cc3Cl)CCC(F)(F)CC2)CCN1S(=O)(=O)c1cn(C)nn1 (racemic) [compound 227, Hydrochloride] show?
7

Bench note: what IC50 did Cn1cnc(S(=O)(=O)N2CCN(C3(CNC(=O)c4c(Cl)cccc4OC(F)(F)F)CCC(F)(F)CC3)CC2)c1 [compound 187, Hydrochloride] show?
1

Bench note: what IC50 did CCCS(=O)(=O)N1CCN(C2(CNC(=O)c3c(F)cccc3Cl)CCC(F)(F)CC2)CC1 [compound 156, Hydrochloride] show?
43

Bench note: what IC50 did CCCS(=O)(=O)N1CCN(C2(CNC(=O)c3ccc(OC(F)(F)F)cc3)CCCCCC2)CC1 [compound 62, Hydrochloride] show?
81

Bench note: what IC50 did Cc1cc(F)ccc1C(=O)NCC1(N2CCN(S(=O)(=O)c3cn(C)cn3)CC2)CCCCC1 [compound 102, Hydrochloride] show?
10

Bench note: what IC50 did CCCS(=O)(=O)N1CCN(C2(CNC(=O)c3c(C)cc(F)cc3OC)CCCC2)CC1 [compound 75, Hydrochloride] show?
268

Bench note: what IC50 did CCCS(=O)(=O)N1CCN(C2(CNC(=O)c3ccc(Cl)cc3Cl)CCCCCC2)CC1 [compound 60, Hydrochloride] show?
11

Bench note: what IC50 did Cn1cnc(S(=O)(=O)N2CCN(C3(CNC(=O)c4ccccc4F)CCC(F)(F)CC3)CC2)c1 [compound 175, Hydrochloride] show?
57

Bench note: what IC50 did CCCS(=O)(=O)N1CCN(C2(CNC(=O)c3cc(F)c(Cl)cc3Cl)CCC(F)(F)CC2)CC1 [compound 263, Hydrochloride] show?
23

Bench note: what IC50 did CCCS(=O)(=O)N1CCN(C2(CNC(=O)c3ccc(Cl)c(Cl)c3)CCCCCC2)CC1 [compound 68, Hydrochloride] show?
174

Bench note: what IC50 did CCCS(=O)(=O)N1CCN(C2(CNC(=O)c3ccccc3-c3ccccc3)CCCCC2)CC1 [compound 34, Hydrochloride] show?
646

Bench note: what IC50 did CCCS(=O)(=O)N1CCN(C2(CNC(=O)c3c(OC)cc(C(F)(F)F)cc3C(F)(F)F)CCCCC2)CC1 [compound 21, Hydrochloride] show?
4

Bench note: what IC50 did CCCS(=O)(=O)N1CCN(C2(CNC(=O)c3c(Cl)cc(C(F)(F)F)cc3Cl)CCC(F)(F)CC2)CC1 [compound 258, Hydrochloride] show?
9

Bench note: what IC50 did Cn1cnc(S(=O)(=O)N2CCN(C3(CNC(=O)c4c(F)cccc4F)CCCCCC3)CC2)c1 [compound 107, Hydrochloride] show?
9

Bench note: what IC50 did CCCS(=O)(=O)N1CCN(C2(CNC(=O)c3ccccc3C(F)(F)F)CCCCC2)CC1 [compound 50, Hydrochloride] show?
48

Bench note: what IC50 did Cn1cnc(S(=O)(=O)N2CCN(C3(CNC(=O)c4c(Cl)cccc4Cl)CCC(F)(F)CC3)CC2)c1 [compound 174, Hydrochloride] show?
5

Bench note: what IC50 did Cn1cnc(S(=O)(=O)N2CCN(C3(CNC(=O)c4c(F)cccc4F)CCCOC3)CC2)c1 (stereo not drawn) [compound 127, Hydrochloride] show?
369

Bench note: what IC50 did CCCS(=O)(=O)N1CCN(C2(CNC(=O)c3cc(Cl)ccc3Cl)CCCCC2)CC1 [compound 32, Hydrochloride] show?
71

Bench note: what IC50 did Cn1cc(S(=O)(=O)N2CCN(C3(CNC(=O)c4ccc(Cl)cc4Cl)CCC(F)(F)CC3)CC2)nn1 [compound 228, Hydrochloride] show?
1

Bench note: what IC50 did CCCS(=O)(=O)N1CCN(C2(CNC(=O)c3ccccc3Cl)CCCCC2)CC1 [compound 8, Hydrochloride] show?
36

* * *

# Tested Target: glycine transporter-2 (GlyT-2) (Homo sapiens)
# Construct: expressed in transfected cells
# Sequence (Q9Y345 whole entry): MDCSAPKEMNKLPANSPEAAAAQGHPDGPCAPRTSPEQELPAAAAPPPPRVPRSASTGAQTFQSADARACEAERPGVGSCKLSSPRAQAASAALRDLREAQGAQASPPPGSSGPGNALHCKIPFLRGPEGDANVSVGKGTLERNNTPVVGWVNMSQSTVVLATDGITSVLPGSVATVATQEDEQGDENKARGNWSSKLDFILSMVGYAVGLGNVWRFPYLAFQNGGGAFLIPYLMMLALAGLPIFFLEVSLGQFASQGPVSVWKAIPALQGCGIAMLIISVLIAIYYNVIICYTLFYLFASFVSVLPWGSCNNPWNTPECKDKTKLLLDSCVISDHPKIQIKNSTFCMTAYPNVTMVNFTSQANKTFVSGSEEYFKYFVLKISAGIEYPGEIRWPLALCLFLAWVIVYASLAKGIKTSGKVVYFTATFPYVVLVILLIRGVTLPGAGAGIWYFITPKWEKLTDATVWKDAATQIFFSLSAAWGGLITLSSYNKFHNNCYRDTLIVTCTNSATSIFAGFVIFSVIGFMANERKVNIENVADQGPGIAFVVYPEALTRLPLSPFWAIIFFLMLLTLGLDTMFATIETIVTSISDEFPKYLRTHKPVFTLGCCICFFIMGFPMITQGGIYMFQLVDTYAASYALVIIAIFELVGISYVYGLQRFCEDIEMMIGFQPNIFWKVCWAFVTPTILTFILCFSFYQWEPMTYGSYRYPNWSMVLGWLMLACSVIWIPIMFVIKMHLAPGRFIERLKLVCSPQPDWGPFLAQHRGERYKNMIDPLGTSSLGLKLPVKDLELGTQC
# Test Method Notes: [14C]glycine uptake assay in HEK-GlyT-2 transfected cells
# Format: cell-based
# Condition Parameters: HEK-GlyT-2 cells
Where a name gives a salt, the structure may show the parent alone.
Task for the reader: assign each of the following compounds its reported IC50.

Bench note: what IC50 did CC(NC(=O)c1ccc(C(F)(F)F)cc1Cl)C1(N2CCN(S(=O)(=O)c3cn(C)nn3)CC2)CCC(F)(F)CC1 (racemic) [compound 222, Hydrochloride] show?
> 75 µM

Bench note: what IC50 did Cn1cnc(S(=O)(=O)N2CCN(C3(CNC(=O)c4ccc(F)cc4F)CCC(F)(F)CC3)CC2)c1 [compound 162, Hydrochloride] show?
> 135 µM

Bench note: what IC50 did Cn1cc(S(=O)(=O)N2CCN(C3(CNC(=O)c4cc(F)c(F)cc4Cl)CCC(F)(F)CC3)CC2)nn1 [compound 235, Hydrochloride] show?
> 75 µM
